target: SIK2 (Homo sapiens, UniProt Q9H0K1); assay: SIK2 Enzymatic Assay Version 1 (ADP Glo); format: biochemical; details: enzyme 0.6 nM, 160 μM ATP and 140 μM HDAC5tide (each 2× final concentration); 30 minutes pre-incubation, 4 hours; ADPGlo luminescence; read-out: SIK2 ADP Glo IC50 (μM) (Test Example 1)
Sequence (Q9H0K1 whole entry, species assumed): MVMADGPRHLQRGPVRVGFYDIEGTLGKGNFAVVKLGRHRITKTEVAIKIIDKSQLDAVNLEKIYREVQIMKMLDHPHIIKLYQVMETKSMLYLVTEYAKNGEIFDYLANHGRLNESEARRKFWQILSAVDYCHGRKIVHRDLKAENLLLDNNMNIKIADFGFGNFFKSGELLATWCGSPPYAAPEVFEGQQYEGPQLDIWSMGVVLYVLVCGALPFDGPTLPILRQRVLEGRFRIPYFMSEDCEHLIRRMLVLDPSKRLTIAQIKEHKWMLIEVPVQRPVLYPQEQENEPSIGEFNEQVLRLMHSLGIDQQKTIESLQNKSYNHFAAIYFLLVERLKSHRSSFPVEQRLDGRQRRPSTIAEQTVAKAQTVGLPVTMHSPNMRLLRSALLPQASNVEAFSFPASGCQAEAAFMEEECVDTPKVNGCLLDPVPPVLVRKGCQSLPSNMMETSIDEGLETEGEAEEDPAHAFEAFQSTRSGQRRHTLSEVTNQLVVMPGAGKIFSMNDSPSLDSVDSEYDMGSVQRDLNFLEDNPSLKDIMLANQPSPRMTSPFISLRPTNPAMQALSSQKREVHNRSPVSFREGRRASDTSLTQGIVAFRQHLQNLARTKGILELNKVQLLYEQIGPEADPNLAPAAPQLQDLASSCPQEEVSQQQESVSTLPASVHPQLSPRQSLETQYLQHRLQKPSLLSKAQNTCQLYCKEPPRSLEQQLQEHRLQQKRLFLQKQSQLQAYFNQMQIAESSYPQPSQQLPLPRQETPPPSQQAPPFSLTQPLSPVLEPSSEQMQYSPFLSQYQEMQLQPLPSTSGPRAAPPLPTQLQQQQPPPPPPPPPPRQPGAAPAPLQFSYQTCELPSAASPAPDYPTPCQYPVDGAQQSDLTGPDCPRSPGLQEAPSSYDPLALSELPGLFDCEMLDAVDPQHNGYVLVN
readoutType: IC50 (µM)
Field: numeric (µM). Do not append units.

Given CN1CCO[C@H](COc2cnc(C#N)cc2-c2ccn3nc(NC(=O)C4CC4)cc3c2)C1 , state its recorded IC50. 0.00152

Fill in: IC50 of CN1CCC(COc2cnc(C#N)cc2-c2ccn3nc(NC(=O)C4CC4)cc3c2)CC1 is ___ 0.00509

Which IC50 reading was recorded for the compound N#Cc1cc(-c2ccn3nc(NC(=O)C4CC4)cc3c2)c(NC2CC2)cn1 ? 0.0703

Quick one: IC50 of Cc1cc(Nc2cc3cc(-c4cc(OC(C)C)ncc4OCC(C)(C)C#N)ccn3n2)nc(C)n1 ? 0.000151

For the compound shown here, N#Cc1cc(-c2ccn3nc(NC(=O)C4CC4)cc3c2)c(O[C@@H]2CNCCOC2)cn1 , give the reported IC50. 0.0213

Which measured IC50 value corresponds to Cc1cc(-c2ccn3nc(NC(=O)C4CC4)cc3c2)c(OCC2(F)CN(C)C2)cn1 ? 0.00307

# lookup: IC50 of N#Cc1cc(-c2ccn3nc(NC(=O)C4CC4)cc3c2)c(OCC2(O)CCCC2)cn1 0.00169

Which value of IC50 has been reported for N#Cc1cc(-c2ccn3nc(NC(=O)C4CC4)cc3c2)c(OC[C@@H]2CC[C@@H](N)C2)cn1 in the records? 0.00121

----------
target: SIK2 (Homo sapiens); assay: SIK2 Enzymatic Assay High Version 2 (High ATP); assay type: biochemical
readoutType: pIC50
Give only the number. pIC50 is defined as minus log10 of concentration in molar units.

Which pIC50 value is on record for CC#Cc1cc(-c2ccn3nc(NC(=O)C4CC4)cc3c2)c(OC2CN(C)C2)cn1 ? 8.43

State the recorded pIC50 for this entry: CNC(=O)c1ccc(Nc2cc3cc(-c4cc(C)ncc4O[C@H]4C[C@H]5COC[C@@H](C4)N5C(C)C)ccn3n2)nc1 8.84

Which pIC50 value is on record for Cc1cc(-c2ccn3nc(NC(=O)C4CC4)cc3c2)c(OCC2(F)CN(C)C2)cn1 ? 7.29

----------
molecular target: SIK2 (Homo sapiens, UniProt Q9H0K1); test: SIK2 Enzymatic Assay High Version 2 (High ATP); format: biochemical; conditions: enzyme 6 nM, 6 mM ATP and 400 μM HDAC5tide (each 2× final concentration); 30 minutes pre-incubation, 2 hours; ADP-Glo Max luminescence; read-out: SIK2 high ATP IC50 (μM) (Test Example 2)
readoutType: IC50 (µM)
Kindly answer with a numeric value in µM, unit omitted.

// lookup IC50 for Cc1cc(-c2ccn3nc(Nc4ccc5nccn5n4)cc3c2)c(OCC(C)(C)O)cn1 [Example 260] 0.0183

Using the record for Cc1cncc(Nc2cc3cc(-c4cc(OC(F)F)ncc4OCC(C)(C)C#N)ccn3n2)n1 [Example 683] , report its IC50. 0.000974

# get_value(readout='IC50', item= Cc1cc(-c2ccn3nc(Nc4cc(C)nc(C)n4)cc3c2)c(OC[C@H]2COC(C)(C)C2)cn1 (single isomer, unassigned) [Example 540] ) 0.0585

What value of IC50 has been recorded for this entry: Cc1cc(-c2ccn3nc(Nc4cc(C)nc(C)n4)cc3c2)c(OC[C@@]2(O)CCCOC2)cn1 (single isomer, unassigned) [Example 216] 0.0311
